Study system: Human immunodeficiency virus type 1 integrase (Human immunodeficiency virus 1) (UniProt Q7ZJM1)
Sequence (Q7ZJM1 as listed by the source): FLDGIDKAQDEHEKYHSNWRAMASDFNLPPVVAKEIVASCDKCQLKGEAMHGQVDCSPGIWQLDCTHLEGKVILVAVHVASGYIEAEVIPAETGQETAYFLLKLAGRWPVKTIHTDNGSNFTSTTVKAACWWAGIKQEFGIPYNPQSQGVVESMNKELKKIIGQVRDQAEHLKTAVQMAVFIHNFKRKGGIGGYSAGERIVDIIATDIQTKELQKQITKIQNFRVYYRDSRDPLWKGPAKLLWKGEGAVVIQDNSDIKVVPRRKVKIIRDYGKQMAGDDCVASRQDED
Measurement notes: Binding affinity to HIV-1 integrase measured after overnight incubation by chemiluminescence analysis relative to IN 174-188
Parameters: concentration or dose not given beside the values
Square brackets hold non-standard residues; d marks the D form. Peptide text beside a SMILES is read from it. NMeI = CC[C@H](C)[C@H](NC)C(=O)O; NMeA = CN[C@@H](C)C(=O)O
A collection of compounds and their measured Activity
Expressed in %, but write only the number.

Exam item: Give the value of Activity reported for the following: CC[C@H](C)[C@H](NC(=O)[C@H](Cc1ccccc1)NC(=O)[C@@H](N)C(C)C)C(=O)N[C@@H](Cc1cnc[nH]1)C(=O)N[C@@H](CC(N)=O)C(=O)N[C@@H](Cc1ccccc1)C(=O)N[C@@H](CCCCN)C(=O)N[C@@H](CCCNC(=N)N)C(=O)N[C@@H](CCCCN)C(=O)O (H-VFIHNFKRK-OH)
Marked response: 132

Exam item: Give the value of Activity reported for the following: CC[C@H](C)[C@H](NC(=O)[C@H](Cc1ccccc1)NC(=O)[C@@H](NC(=O)[C@H](C)N(C)C(=O)[C@H](CCSC)NC(=O)[C@H](CCC(N)=O)NC(=O)[C@@H](NC(=O)[C@H](C)NC(=O)[C@@H](N)[C@@H](C)O)C(C)C)C(C)C)C(=O)N[C@@H](Cc1cnc[nH]1)C(=O)N[C@@H](CC(N)=O)C(=O)N[C@@H](Cc1ccccc1)C(=O)N[C@@H](CCCCN)C(=O)N[C@@H](CCCNC(=N)N)C(=O)N[C@@H](CCCCN)C(=O)O (H-TAVQM[NMeA]VFIHNFKRK-OH)
Marked response: 99

Exam item: Give the value of Activity reported for the following: CC[C@H](C)[C@H](NC(=O)[C@H](Cc1ccccc1)NC(=O)[C@@H](NC(=O)[C@H](C)NC(=O)[C@H](CCSC)NC(=O)[C@H](CCC(N)=O)NC(=O)[C@@H](NC(=O)[C@H](C)NC(=O)[C@@H](N)[C@@H](C)O)C(C)C)C(C)C)C(=O)N[C@@H](Cc1cnc[nH]1)C(=O)N[C@@H](CC(N)=O)C(=O)N[C@@H](Cc1ccccc1)C(=O)N[C@H](CCCCN)C(=O)N[C@@H](CCCNC(=N)N)C(=O)N[C@@H](CCCCN)C(=O)O
Marked response: 110

Exam item: Give the value of Activity reported for the following: CC[C@H](C)[C@H](NC(=O)[C@H](Cc1ccccc1)NC(=O)[C@@H](NC(=O)[C@H](C)NC(=O)[C@H](CCSC)NC(=O)[C@H](CCC(N)=O)NC(=O)[C@@H](NC(=O)[C@@H](C)NC(=O)[C@@H](N)[C@@H](C)O)C(C)C)C(C)C)C(=O)N[C@@H](Cc1cnc[nH]1)C(=O)N[C@@H](CC(N)=O)C(=O)N[C@@H](Cc1ccccc1)C(=O)N[C@@H](CCCCN)C(=O)N[C@@H](CCCNC(=N)N)C(=O)N[C@@H](CCCCN)C(=O)O
Marked response: 105

Exam item: Give the value of Activity reported for the following: CC[C@H](C)[C@@H](C(=O)N[C@@H](Cc1cnc[nH]1)C(=O)N[C@@H](CC(N)=O)C(=O)N[C@@H](Cc1ccccc1)C(=O)N[C@@H](CCCCN)C(=O)N[C@@H](CCCNC(=N)N)C(=O)N[C@@H](CCCCN)C(=O)O)N(C)C(=O)[C@H](Cc1ccccc1)NC(=O)[C@@H](NC(=O)[C@H](C)NC(=O)[C@H](CCSC)NC(=O)[C@H](CCC(N)=O)NC(=O)[C@@H](NC(=O)[C@H](C)NC(=O)[C@@H](N)[C@@H](C)O)C(C)C)C(C)C (H-TAVQMAVF[NMeI]HNFKRK-OH)
Marked response: 123

====

Study system: Human immunodeficiency virus type 1 integrase (Human immunodeficiency virus 1)
Measurement notes: Binding affinity to HIV-1 integrase measured after overnight incubation by chemiluminescence analysis relative to IN 118-128
Parameters: concentration or dose not given beside the values
Readout label: Activity (%)
Expressed in %, but write only the number.

Input smiles: CC(C)[C@H](NC(=O)[C@H](NC(=O)[C@@H](NC(=O)[C@H](CO)NC(=O)[C@@H](NC(=O)[C@H](Cc1ccccc1)NC(=O)[C@H](CC(N)=O)NC(=O)[C@H](CO)NC(=O)CN)[C@@H](C)O)[C@@H](C)O)[C@@H](C)O)C(=O)N[C@@H](CCCCN)C(=O)N[C@@H](C)C(=O)O
Measurement unit: %
Value measured: 85

Please turn your attention to the following entry.
Exam item: Give the value of Activity reported for the following: CC(C)[C@H](NC(=O)[C@@H](NC(=O)[C@@H](NC(=O)[C@H](CO)NC(=O)[C@@H](NC(=O)[C@H](Cc1ccccc1)NC(=O)[C@@H](CC(N)=O)NC(=O)[C@H](CO)NC(=O)CN)[C@@H](C)O)[C@@H](C)O)[C@@H](C)O)C(=O)N[C@@H](CCCCN)C(=O)N[C@@H](C)C(=O)O
Marked response: 133

====

Tested on: Human immunodeficiency virus 1
Measurement notes: Binding affinity to HLT-tagged HIV-1 Rev measured after overnight incubation by chemiluminescence analysis relative to IN 174-188
Design: concentration or dose not given beside the values
Square brackets hold non-standard residues; d marks the D form. Peptide text beside a SMILES is read from it. NMeF = CN[C@@H](Cc1ccccc1)C(=O)O
Readout label: Activity (%)
Expressed in %, but write only the number.

Exam item: Give the value of Activity reported for the following: CC[C@H](C)[C@H](NC(=O)[C@H](Cc1ccccc1)N(C)C(=O)[C@@H](NC(=O)[C@H](C)NC(=O)[C@H](CCSC)NC(=O)[C@H](CCC(N)=O)NC(=O)[C@@H](NC(=O)[C@H](C)NC(=O)[C@@H](N)[C@@H](C)O)C(C)C)C(C)C)C(=O)N[C@@H](Cc1cnc[nH]1)C(=O)N[C@@H](CC(N)=O)C(=O)N[C@@H](Cc1ccccc1)C(=O)N[C@@H](CCCCN)C(=O)N[C@@H](CCCNC(=N)N)C(=O)N[C@@H](CCCCN)C(=O)O (H-TAVQMAV[NMeF]IHNFKRK-OH)
Marked response: 152

====

A collection of compounds and their measured Activity
System: Human immunodeficiency virus 1
Measurement notes: Binding affinity to HLT-tagged HIV-1 Rev measured after overnight incubation by chemiluminescence analysis relative to IN 174-188
Parameters: concentration or dose not given beside the values
Square brackets hold non-standard residues; d marks the D form. Peptide text beside a SMILES is read from it. NMeT = CN[C@H](C(=O)O)[C@@H](C)O
Expressed in %, but write only the number.

Compound: CC[C@H](C)[C@H](NC(=O)[C@H](Cc1ccccc1)NC(=O)[C@@H](NC(=O)[C@H](C)NC(=O)[C@H](CCSC)NC(=O)[C@H](CCC(N)=O)NC(=O)[C@@H](NC(=O)[C@H](C)NC(=O)[C@H](C)N)C(C)C)C(C)C)C(=O)N[C@@H](Cc1cnc[nH]1)C(=O)N[C@@H](CC(N)=O)C(=O)N[C@@H](Cc1ccccc1)C(=O)N[C@@H](CCCCN)C(=O)N[C@@H](CCCNC(=N)N)C(=O)N[C@@H](CCCCN)C(=O)O (H-AAVQMAVFIHNFKRK-OH)
Study system: Human immunodeficiency virus 1
Measurement unit: %
Activity: 80
--
Compound: CC[C@H](C)[C@H](NC(=O)[C@H](Cc1ccccc1)NC(=O)[C@@H](N)C(C)C)C(=O)N[C@@H](Cc1cnc[nH]1)C(=O)N[C@@H](CC(N)=O)C(=O)N[C@@H](Cc1ccccc1)C(=O)N[C@@H](CCCCN)C(=O)N[C@@H](CCCNC(=N)N)C(=O)N[C@@H](CCCCN)C(=O)O (H-VFIHNFKRK-OH)
Study system: Human immunodeficiency virus 1
Measurement unit: %
Activity: 86
--
Compound: CC[C@H](C)[C@@H](NC(=O)[C@H](Cc1ccccc1)NC(=O)[C@@H](NC(=O)[C@H](C)NC(=O)[C@H](CCSC)NC(=O)[C@H](CCC(N)=O)NC(=O)[C@@H](NC(=O)[C@H](C)NC(=O)[C@@H](N)[C@@H](C)O)C(C)C)C(C)C)C(=O)N[C@@H](Cc1cnc[nH]1)C(=O)N[C@@H](CC(N)=O)C(=O)N[C@@H](Cc1ccccc1)C(=O)N[C@@H](CCCCN)C(=O)N[C@@H](CCCNC(=N)N)C(=O)N[C@@H](CCCCN)C(=O)O
Study system: Human immunodeficiency virus 1
Measurement unit: %
Activity: 108
--
Compound: CC[C@H](C)[C@H](NC(=O)[C@H](Cc1ccccc1)NC(=O)[C@@H](NC(=O)[C@H](C)NC(=O)[C@H](CCSC)NC(=O)[C@H](CCC(N)=O)NC(=O)[C@@H](NC(=O)[C@H](C)NC(=O)[C@@H](NC)[C@@H](C)O)C(C)C)C(C)C)C(=O)N[C@@H](Cc1cnc[nH]1)C(=O)N[C@@H](CC(N)=O)C(=O)N[C@@H](Cc1ccccc1)C(=O)N[C@@H](CCCCN)C(=O)N[C@@H](CCCNC(=N)N)C(=O)N[C@@H](CCCCN)C(=O)O (H-[NMeT]AVQMAVFIHNFKRK-OH)
Study system: Human immunodeficiency virus 1
Measurement unit: %
Activity: 93

Please turn your attention to the following entry.
Exam item: Give the value of Activity reported for the following: CC[C@H](C)[C@H](NC(=O)[C@H](Cc1ccccc1)NC(=O)[C@@H](NC(=O)[C@H](C)NC(=O)[C@H](CCSC)NC(=O)[C@H](CCC(N)=O)NC(=O)[C@@H](NC(=O)[C@H](C)NC(=O)[C@H](N)[C@@H](C)O)C(C)C)C(C)C)C(=O)N[C@@H](Cc1cnc[nH]1)C(=O)N[C@@H](CC(N)=O)C(=O)N[C@@H](Cc1ccccc1)C(=O)N[C@@H](CCCCN)C(=O)N[C@@H](CCCNC(=N)N)C(=O)N[C@@H](CCCCN)C(=O)O
Marked response: 141
